Data origin, for the record: ChEMBL document CHEMBL3808385

# target of assay: Hepatocyte growth factor receptor (Homo sapiens, UniProt P08581)
# Sequence (P08581 whole entry): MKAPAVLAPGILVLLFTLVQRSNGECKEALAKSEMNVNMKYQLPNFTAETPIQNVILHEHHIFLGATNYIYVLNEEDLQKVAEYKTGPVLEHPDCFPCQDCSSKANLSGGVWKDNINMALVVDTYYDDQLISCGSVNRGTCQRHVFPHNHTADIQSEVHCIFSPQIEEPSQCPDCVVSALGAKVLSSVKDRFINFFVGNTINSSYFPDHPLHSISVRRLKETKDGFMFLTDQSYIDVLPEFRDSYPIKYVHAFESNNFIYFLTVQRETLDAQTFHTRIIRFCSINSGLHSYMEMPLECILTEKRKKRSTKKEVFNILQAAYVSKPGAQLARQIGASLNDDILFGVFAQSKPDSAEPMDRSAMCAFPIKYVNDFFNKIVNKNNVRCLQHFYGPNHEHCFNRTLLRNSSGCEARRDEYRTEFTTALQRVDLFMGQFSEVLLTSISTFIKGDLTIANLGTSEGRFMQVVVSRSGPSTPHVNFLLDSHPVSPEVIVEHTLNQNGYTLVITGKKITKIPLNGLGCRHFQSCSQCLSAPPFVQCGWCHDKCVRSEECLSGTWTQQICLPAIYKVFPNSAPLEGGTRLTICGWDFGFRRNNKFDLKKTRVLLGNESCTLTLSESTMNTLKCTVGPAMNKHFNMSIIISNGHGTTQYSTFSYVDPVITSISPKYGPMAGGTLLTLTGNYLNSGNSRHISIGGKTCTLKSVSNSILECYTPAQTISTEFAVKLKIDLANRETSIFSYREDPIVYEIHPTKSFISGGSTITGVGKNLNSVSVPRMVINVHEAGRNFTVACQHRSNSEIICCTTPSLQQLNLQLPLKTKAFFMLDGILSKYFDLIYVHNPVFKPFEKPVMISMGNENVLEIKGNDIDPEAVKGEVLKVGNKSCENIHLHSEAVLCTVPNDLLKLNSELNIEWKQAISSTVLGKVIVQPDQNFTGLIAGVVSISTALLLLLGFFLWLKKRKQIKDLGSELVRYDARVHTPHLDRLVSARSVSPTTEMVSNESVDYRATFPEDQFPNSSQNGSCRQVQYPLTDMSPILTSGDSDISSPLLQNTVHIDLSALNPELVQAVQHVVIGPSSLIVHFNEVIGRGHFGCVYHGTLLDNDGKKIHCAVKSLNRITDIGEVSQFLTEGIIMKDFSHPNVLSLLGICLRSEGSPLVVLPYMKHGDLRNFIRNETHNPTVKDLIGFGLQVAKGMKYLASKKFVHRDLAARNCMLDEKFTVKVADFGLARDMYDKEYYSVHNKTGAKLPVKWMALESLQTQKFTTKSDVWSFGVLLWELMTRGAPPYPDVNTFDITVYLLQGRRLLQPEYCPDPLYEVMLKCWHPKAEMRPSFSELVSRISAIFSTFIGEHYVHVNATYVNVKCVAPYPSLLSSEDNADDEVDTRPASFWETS
# procedure text: Inhibition of cMET (unknown origin) using poly(Glu-Tyr) substrate incubated for 60 mins by ELISA

{"line notation": "COc1ccc2c(OCc3nnc4nnc(-c5ccccc5)nn34)ccnc2c1", "target of assay": "Hepatocyte growth factor receptor (Homo sapiens, UniProt P08581)", "unit symbol": "nM", "IC50": 6}

----------
# Tested on: BeWo
# procedure text: Cytotoxicity against human Bewo cells assessed as cell growth inhibition after 72 hrs by MTT assay
# Type: functional, cell-based
# YES = IC50 below 8 µM (exclusive); NO = IC50 at/above 8 µM

{"line notation": "Cc1cc(C)n(-c2nnc3nncn3n2)n1", "target of assay": "BeWo", "category label": "NO"}
{"line notation": "CCCCC(=O)N1CCN(c2nnc3nncn3n2)CC1", "target of assay": "BeWo", "category label": "YES"}
{"line notation": "CC(=O)N1CCN(c2nnc3nncn3n2)CC1", "target of assay": "BeWo", "category label": "NO"}
{"line notation": "CCCCCC(=O)N1CCN(c2nnc3nncn3n2)CC1", "target of assay": "BeWo", "category label": "YES"}
{"line notation": "CCCC(=O)N1CCN(c2nnc3nncn3n2)CC1", "target of assay": "BeWo", "category label": "YES"}
{"line notation": "c1ccc(CN2CCN(c3nnc4nncn4n3)CC2)cc1", "target of assay": "BeWo", "category label": "YES"}
{"line notation": "Nc1nnc2nncn2n1", "target of assay": "BeWo", "category label": "NO"}
{"line notation": "Cc1ccc(C(=O)N2CCN(c3nnc4nncn4n3)CC2)cc1", "target of assay": "BeWo", "category label": "NO"}
{"line notation": "c1nnc2nnc(N3CCCCC3)nn12", "target of assay": "BeWo", "category label": "NO"}
{"line notation": "O=C(c1ccc([N+](=O)[O-])cc1)N1CCN(c2nnc3nncn3n2)CC1", "target of assay": "BeWo", "category label": "YES"}
{"line notation": "CCCCNc1nnc2nncn2n1", "target of assay": "BeWo", "category label": "NO"}
{"line notation": "OCCNc1nnc2nncn2n1", "target of assay": "BeWo", "category label": "YES"}
{"line notation": "OCC(CO)(CO)Nc1nnc2nncn2n1", "target of assay": "BeWo", "category label": "NO"}
